- tested on: PI3Kα H1047R (T47D cells) (Homo sapiens, UniProt P42336, H1047R)
- Construct: endogenous in cells; host or cells: T47D cells
- Sequence (P42336 whole entry H1047R): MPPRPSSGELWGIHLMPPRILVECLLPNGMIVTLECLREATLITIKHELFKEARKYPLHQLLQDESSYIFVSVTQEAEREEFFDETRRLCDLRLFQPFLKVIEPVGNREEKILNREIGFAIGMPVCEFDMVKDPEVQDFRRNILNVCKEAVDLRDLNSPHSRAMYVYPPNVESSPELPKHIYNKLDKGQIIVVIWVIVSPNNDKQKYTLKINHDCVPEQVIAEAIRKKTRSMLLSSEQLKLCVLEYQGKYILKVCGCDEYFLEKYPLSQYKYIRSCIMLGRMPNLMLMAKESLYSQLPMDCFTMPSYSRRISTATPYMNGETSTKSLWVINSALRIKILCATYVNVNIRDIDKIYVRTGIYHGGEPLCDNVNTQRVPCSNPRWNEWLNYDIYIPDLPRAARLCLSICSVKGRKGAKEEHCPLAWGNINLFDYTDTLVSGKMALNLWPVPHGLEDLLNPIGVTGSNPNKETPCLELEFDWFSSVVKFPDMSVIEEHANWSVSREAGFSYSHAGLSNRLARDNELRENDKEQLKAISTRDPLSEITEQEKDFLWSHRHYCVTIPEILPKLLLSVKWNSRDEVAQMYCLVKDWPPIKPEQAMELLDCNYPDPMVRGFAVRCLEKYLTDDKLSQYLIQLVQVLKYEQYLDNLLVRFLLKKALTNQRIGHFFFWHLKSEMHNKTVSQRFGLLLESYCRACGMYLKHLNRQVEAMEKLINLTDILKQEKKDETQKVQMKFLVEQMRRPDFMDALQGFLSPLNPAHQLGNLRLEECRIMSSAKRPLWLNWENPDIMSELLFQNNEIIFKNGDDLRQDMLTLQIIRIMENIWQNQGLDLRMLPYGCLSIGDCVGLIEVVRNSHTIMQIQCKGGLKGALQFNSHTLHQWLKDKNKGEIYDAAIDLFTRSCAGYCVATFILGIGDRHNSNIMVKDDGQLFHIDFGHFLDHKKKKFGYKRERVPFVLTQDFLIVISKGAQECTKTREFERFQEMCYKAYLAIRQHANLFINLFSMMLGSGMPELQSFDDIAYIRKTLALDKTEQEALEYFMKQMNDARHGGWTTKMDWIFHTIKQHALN
- Sequence (P27986 whole entry partner): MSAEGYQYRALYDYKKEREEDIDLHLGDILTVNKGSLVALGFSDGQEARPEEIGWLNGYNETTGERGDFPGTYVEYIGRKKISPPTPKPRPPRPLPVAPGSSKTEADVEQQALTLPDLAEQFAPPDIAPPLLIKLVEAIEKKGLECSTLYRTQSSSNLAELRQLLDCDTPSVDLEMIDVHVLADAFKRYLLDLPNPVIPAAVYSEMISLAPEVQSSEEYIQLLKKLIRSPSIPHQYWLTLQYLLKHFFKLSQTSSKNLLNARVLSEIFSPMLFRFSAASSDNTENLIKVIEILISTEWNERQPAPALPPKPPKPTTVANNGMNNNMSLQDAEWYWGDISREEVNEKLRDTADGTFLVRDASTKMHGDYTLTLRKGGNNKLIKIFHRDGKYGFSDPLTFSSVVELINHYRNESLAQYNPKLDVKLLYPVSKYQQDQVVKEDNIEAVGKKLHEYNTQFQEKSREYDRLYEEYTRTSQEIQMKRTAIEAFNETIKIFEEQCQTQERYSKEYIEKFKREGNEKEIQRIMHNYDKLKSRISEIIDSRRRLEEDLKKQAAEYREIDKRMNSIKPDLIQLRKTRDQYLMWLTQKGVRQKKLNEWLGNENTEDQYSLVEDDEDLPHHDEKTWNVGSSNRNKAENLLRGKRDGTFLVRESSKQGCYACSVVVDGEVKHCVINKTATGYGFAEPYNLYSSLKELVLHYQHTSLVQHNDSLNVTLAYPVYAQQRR
- assay text: PI3Kα cellular assay: pAKT HTRF in T47D cells after EGF stimulation
- Type: cell-based
- protocol conditions: selectivity of T47D (H1047R) over SKBR3 (WT) pAKT IC50
result type: T47D pAKT S473 HTRF IC50 (H1047R): T47D (H1047R) selectivity over SKBR3 (WT)

Take a look at these entries with their results.
# compound, tested on, result
data = [
    ("C=CC(=O)Nc1ccc(C(=O)O)c(N[C@@H](C)c2cc(C)cn3c(=O)cc(N4CCOCC4)nc23)c1", "PI3Kα H1047R (T47D cells) (Homo sapiens, UniProt P42336, H1047R)", "C (C denotes ≤5-fold)"),
    ("CCn1nc(N)c2cc(-c3cc(=O)n4cc(C)cc([C@@H](C)Nc5ccccc5C(=O)O)c4n3)ccc21", "PI3Kα H1047R (T47D cells) (Homo sapiens, UniProt P42336, H1047R)", "A (A denotes >20-fold)"),
    ("Cc1cc([C@H](C)Nc2ccccc2S(N)(=O)=O)c2nc(-c3cccc(C#N)c3)c(C)c(=O)n2c1", "PI3Kα H1047R (T47D cells) (Homo sapiens, UniProt P42336, H1047R)", "C (C denotes ≤5-fold)"),
    ("Cc1cc(C(C)Nc2ccccc2S(N)(=O)=O)c2nc(N3C[C@@H](C)O[C@@H](C)C3)cc(=O)n2c1 (stereo partly shown)", "PI3Kα H1047R (T47D cells) (Homo sapiens, UniProt P42336, H1047R)", "A (A denotes >20-fold)"),
    ("Cc1cc([C@@H](C)Nc2ccccc2C(=O)O)c2nc(-c3ccc4c(c3)c(C)nn4C)cc(=O)n2c1 (single isomer, unassigned)", "PI3Kα H1047R (T47D cells) (Homo sapiens, UniProt P42336, H1047R)", "C (C denotes ≤5-fold)"),
    ("Cc1cc([C@H](C)Nc2ccccc2C(=O)O)c2nc(-c3ccc4c(ccn4CC(N)=O)c3)cc(=O)n2c1", "PI3Kα H1047R (T47D cells) (Homo sapiens, UniProt P42336, H1047R)", "C (C denotes ≤5-fold)"),
]

Shifting focus to the compound that follows.
Give reported T47D pAKT S473 HTRF IC50 (H1047R): T47D (H1047R) selectivity over SKBR3 (WT) value for "Cc1cc([C@@H](C)Nc2ccccc2S(N)(=O)=O)c2nc(-c3ccc4c(c3)c(C)cn4C3CC3)c(C)c(=O)n2c1"
C (C denotes ≤5-fold)
